IC50 values, listed per item
targetEntity: UniProt P47895
methodNotes: ALDH1A3 cellular assay (ALDEFLUOR) in WM266.4 melanoma cells
Format: cell-based
studyConditions: WM266.4 cells; 60 min incubation; percentage of ALDH-positive cells

These solved cases illustrate the format of a correct answer.
O=C1CCc2cc(NC(=O)c3sc(N4CC(O)C4)nc3-c3cccc(F)c3)ccc2N1 : < 100 nM
O=C1CCc2cc(OCCN3CCCC3c3ccc(F)cc3)ccc2N1 (centres unmarked) : 1000 to 10000 nM
O=C1CCc2cc(OCCN3CCC[C@@H]3c3cccc(F)c3)ccc2N1 : < 100 nM

Item O=C1CCc2cc(OCCN3CCCC3c3ccccc3F)ccc2N1 (centres unmarked) has what recorded IC50?
1000 to 10000 nM

Same thing, different compound: Cc1ccc(C2CCCN2CCOc2ccc3c(c2)CCC(=O)N3)cn1 (centres unmarked)
100 to 1000 nM

----------
targetEntity: ALDH1A2 (Homo sapiens, UniProt O94788)
Sequence (O94788 1-518): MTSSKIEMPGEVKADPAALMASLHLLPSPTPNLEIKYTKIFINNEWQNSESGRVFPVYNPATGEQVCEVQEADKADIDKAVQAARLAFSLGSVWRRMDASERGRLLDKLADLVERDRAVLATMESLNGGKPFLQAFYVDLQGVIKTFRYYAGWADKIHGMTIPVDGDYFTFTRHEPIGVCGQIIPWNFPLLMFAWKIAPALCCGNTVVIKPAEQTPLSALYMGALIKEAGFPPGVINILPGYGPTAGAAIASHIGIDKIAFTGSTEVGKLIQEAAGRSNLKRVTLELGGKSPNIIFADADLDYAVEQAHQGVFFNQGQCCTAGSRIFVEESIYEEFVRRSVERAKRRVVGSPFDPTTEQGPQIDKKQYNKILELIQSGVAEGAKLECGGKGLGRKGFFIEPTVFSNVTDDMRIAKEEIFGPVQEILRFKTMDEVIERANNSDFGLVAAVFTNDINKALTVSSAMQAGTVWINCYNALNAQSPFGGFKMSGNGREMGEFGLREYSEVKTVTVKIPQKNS
pIC50: −log10 of the molar value.
Listed below: pIC50 values for each entry.

O=C1CCc2cc(NC(=O)c3ncsc3-c3cccnc3)ccc2N1 : 5.00 to 6.00

Give its pIC50 value. Item: O=C1CCc2cc(NC(=O)c3ncsc3-c3ccsc3)ccc2N1
5.00 to 6.00

Same again, this time with CC1Oc2cc(OCCN3CCCC3c3cccc(F)c3)ccc2NC1=O (stereo not shown)
4.00 to 5.00

Now give it for O=c1ccc2cc(OCCN3CCCC3c3cccc(F)c3)ccc2[nH]1 (stereo not shown) too.
5.00 to 6.00

----------
targetEntity: ALDH1A3 (Homo sapiens)
Sequence (P47895 1-512): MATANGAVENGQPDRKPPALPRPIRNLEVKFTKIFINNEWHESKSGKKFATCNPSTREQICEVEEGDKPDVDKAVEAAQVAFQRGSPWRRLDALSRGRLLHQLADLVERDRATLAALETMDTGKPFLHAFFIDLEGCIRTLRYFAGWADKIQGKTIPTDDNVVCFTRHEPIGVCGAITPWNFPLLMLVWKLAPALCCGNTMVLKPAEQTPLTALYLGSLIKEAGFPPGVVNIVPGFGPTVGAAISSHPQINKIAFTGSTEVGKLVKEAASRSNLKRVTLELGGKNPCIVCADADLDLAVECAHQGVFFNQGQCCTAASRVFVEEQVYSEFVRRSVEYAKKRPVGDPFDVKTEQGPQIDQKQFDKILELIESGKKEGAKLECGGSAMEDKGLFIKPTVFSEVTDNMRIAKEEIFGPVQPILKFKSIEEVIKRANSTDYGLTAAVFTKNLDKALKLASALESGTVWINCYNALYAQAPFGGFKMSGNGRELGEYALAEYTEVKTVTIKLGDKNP
methodNotes: Primary biochemical assay, NAD(P)H-Glo Detection System
Design: His-tag; made in house; host or cells: E. coli Rosetta (DE3)
studyConditions: 30 min pre-incubation, propionaldehyde and NAD at Km
reportedEndpoint: IC50

The cases that follow already have their IC50 on record.
O=C1CSc2cc(OCCN3CCCC3c3ccccn3)ccc2N1 (stereo not shown) : 0.1 to 1 µM
CN(CCOc1ccc2c(c1)CCC(=O)N2)C(CO)c1cccc(F)c1 (stereo not shown) : 0.1 to 1 µM
CN(CCOc1ccc2c(c1)CCC(=O)N2)Cc1ccccn1 : 1 to 10 µM
O=C1CCc2cc(OCCN(CCO)Cc3cccnc3)ccc2N1 : < 0.1 µM
O=C1CCc2cc(OCCN3CCCC3c3ccccc3)ccc2N1 (stereo not shown) : 0.1 to 1 µM

Need IC50 of Cn1cc(C2CCCN2CCOc2ccc3c(c2)SCC(=O)N3)cn1 (stereo not shown) , thanks.
0.1 to 1 µM

Now consider CC1CN(CCOc2ccc3c(c2)CCC(=O)N3)C(c2ccccc2)CO1 (mixture of isomers) and answer again.
0.1 to 1 µM

# iterate: O=C1CCc2cc(OCCN(CCO)Cc3cccc(F)c3)ccc2N1
< 0.1 µM

// query: O=C1CCc2cc(NC(=O)c3scnc3-c3ccc(F)cc3)ccc2N1
< 0.1 µM

// next record Cc1nc(C2CCCN2CCOc2ccc3c(c2)CCC(=O)N3)cs1 (stereo not shown)
0.1 to 1 µM
